Entries with their measured pIC50, system epidermal growth factor receptor (EGFR) tyrosine kinase (Homo sapiens):
Value format note: pIC50 is -log10 of concentration (mol/L); just state the number.

O=c1c2cc(O)ccc2oc2cccc(O)c12 [compound 2, 1,7-dihydroxyxanthone] | 6.65

Alright, here's another compound for you.
Quick check: pIC50 on epidermal growth factor receptor (EGFR) tyrosine kinase (Homo sapiens), item O=c1c2cccc(O)c2oc2cccc(O)c12 [compound 1, 1,5-dihydroxyxanthone] ?
7.04
